The origin of these recorded values is the Human Domainome abundance scans (Beltran et al. 2025).

B1: Chromodomain-helicase-DNA-binding protein 3, residues 374 to 426; numbered along this chain, Q12873 (parent)
chain: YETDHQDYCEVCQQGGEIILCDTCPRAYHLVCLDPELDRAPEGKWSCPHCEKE

Variants of: B1
Assay Info: abundance fitness (aPCA) (normalised: wild type 0, dead -1); higher = more abundant; growth selection in yeast, the domain comes from the species named
Assay Context: Homo sapiens
Property Measured: abundance fitness
No unit in the answer, only the number.

Below: 2 variants and their reported abundance fitness.
>  <Variant Id>
D34L

>  <Reported Result>
-0.083

$$$$
>  <Variant Id>
G15M

>  <Reported Result>
0.084

$$$$

Entry under test: C21V . Its abundance fitness was -0.57

Noted for P25F : its abundance fitness reads -0.021

Per the records, this variant ( H5D ) has abundance fitness equal to -1.03

So for Y28N , the logged abundance fitness turned out to be -0.377

Entry L37R , abundance fitness reported as -0.094

Lab note: measured abundance fitness of Y1S was -0.264

// abundance fitness lookup, variant = D38S , result: -0.09

// abundance fitness lookup, variant = E10P , result: -0.006

abundance fitness measured on V11R = 0.12

The reported abundance fitness of the variant C21T was -0.381

Recorded abundance fitness (variant I19N ): 0.167

Field abundance fitness (entry D38Q ) reads -0.326

Measured abundance fitness, D22N : -0.008

Measured abundance fitness, L37G : -0.108
